experiment: viability loss in pontine glioma line – cell-based, SU-DIPG-XVII, MIPE5.0, CellTiter-Glo, qHTS, dose response (AID 1347060); settings: CellTiter-Glo ATP luminescence;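 on AC50: cells exposed to compound for 48 hours before viability readout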
Records with an inconclusive call do not appear. Active and inactive are the calls of the source. Cut-off not given; nearly all actives show AC50 up to about 26 µM.
Allowed answers: yes = active, no = inactive

Look over these answered cases.
chemical string | class name
CCCOc1ccc(CCc2nc3cc(-c4c(C)noc4C)ccc3n2CCN2CCOCC2)cc1 | no
COc1ccc2c3n(c(=NC(=O)c4cccnc4)nc2c1OC)CCN3 | yes
CN(C)C(N)=NC(=N)N | no

Which result was noted for this compound in the test: CCCc1cc(C(=O)N[C@H](Cc2ccc(-c3cccc(OC(F)(F)F)c3)nc2)C(=O)N[C@@H]2CCNC2)sc1C
yes

Status in this test for Nc1ncc(C(=O)NC2CN(C(=O)C3CC3)C2)c2ccc(-c3cccc(F)c3)nc12 ?
no

---

experiment: galactose survival enhancers in mitochondrial complex I cybrids – cell-based, galactose medium, ATP luminescence, primary screen (AID 1645843); settings: complex I mutant cybrid cells, 72 h, stronger effect = higher value;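 further: positive z means more ATP and so rescue of galactose-driven cybrid death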
Could you please classify the records by z-score using these ranges: bottom range (below -0.4), center range (-0.4 to below 0.2), top range (0.2 or more)

Here are 2 compounds together with their reported answers.
compound | class name
Cc1ccc(/C=C2\CNC/C(=C\c3ccc(C)cc3)C2=O)cc1 | bottom range
CC(C)[C@H](NS(=O)(=O)c1ccc(-c2ccc(Br)cc2)cc1)C(=O)O | top range

Now let's try a different one.
// bin(item) where item = NS(=O)(=O)c1nn2cc(-c3ccccc3)nc2s1
bottom range

---

Please respond with reported fluorescence ratio (interference) for every item in the list.
experiment: compounds altering Cy5-DNA-NS3h complex signal – biochemical, LOPAC1280, artefact control for HCV NS3 helicase inhibitor project (AID 687037); details: Cy5-DNA-NS3h complex fluorescence interference counterscreen
One number for each entry.

chemical string | fluorescence ratio (interference)
NC(=O)c1cc[n+](CC2=C(C(=O)O)N3C(=O)[C@@H](NC(=O)[C@@H](c4ccccc4)S(=O)(=O)[O-])[C@H]3SC2)cc1 | 1
COc1ccc(C(=O)NCc2cccnc2)cc1C(=O)NCc1cccnc1 | 1
CC(=O)O[C@H]1C[C@@H]2CC[C@@H]3[C@H](CC[C@@]4(C)[C@H]3C[C@H]([N+]3(C)CCCCC3)[C@@H]4OC(C)=O)[C@@]2(C)C[C@@H]1[N+]1(C)CCCCC1 | 1
NC(N)=NCc1cccc(I)c1 | 0.9

For every item below, please supply its fluorescence ratio (interference).
1. COc1cc(CNC(=O)CCCCCCC(C)C)ccc1O
2. CCN(CC)CCn1c(=O)c(Cc2ccc(OC)cc2)nc2ccccc21
3. COc1cc(/C=C(\C#N)C(=O)Nc2nnc(C(F)(F)F)s2)ccc1OCc1ccc(C(F)(F)F)cc1C(F)(F)F
4. C[C@]12C=CC(=O)C=C1CC[C@@H]1C2=CC[C@]2(C)[C@@H](C(=O)CN3CCN(c4cc(N5CCCC5)nc(N5CCCC5)n4)CC3)CC[C@@H]12

[1, 1, 1, 0.9]

---

So I've got a bunch of molecules here, and I need their fold change values.
assay: viability loss with induced miR-34 in A549 – imaging, A549 dox-inducible miR-34, nuclei and caspase counts, primary screen (AID 1347080); details: A549 miR-34 inducible, Hoechst nuclei count, 48 h; measured here: relative caspase fold change +Dox/-Dox

Can you give me fold change for all of these, one by one?
1. Cc1c(C(=O)NC2CCCCC2)sc2nc3ccc(N)cc3n12
2. CCCc1oc(CCC(=O)O)c(C(=O)O)c1C
3. CCCCCCC[C@H](O)/C=C/[C@@H]1[C@@H](C/C=C\CCCC(=O)O)[C@@H](O)C[C@H]1O
4. COc1cc2c3cc1Oc1c(OC)c(OC)cc4c1[C@@H](Cc1ccc(OC(=O)c5ccc([N+](=O)[O-])cc5)c(c1)Oc1ccc(cc1)C[C@@H]3N(C)CC2)N(C)CC4
5. Cc1c(F)cc(C(=O)NC2CC2)cc1-c1ccc(C(=O)NCC(C)(C)C)cn1
6. CCOC(=O)c1ccnc(C(=O)OCC)c1

1. 1.46
2. 0.896
3. 1.5
4. 0.897
5. 0.447
6. 0.9
